src = BigSolDB 2.1

Conditions: in n-butanol, 303.15 K

COMPOUND STRUCTURE STRING | solubility (mole fraction)
CC(C)OC(=O)[C@H](C)N[P@](=O)(Oc1ccccc1)Oc1c(F)c(F)c(F)c(F)c1F | 0.00348

----------
Conditions: in acetone, 303.15 K

COMPOUND STRUCTURE STRING | solubility (mole fraction)
CC(C)OC(=O)[C@H](C)N[P@](=O)(Oc1ccccc1)Oc1c(F)c(F)c(F)c(F)c1F | 0.0226

----------
Conditions: in acetone, 313.15 K

COMPOUND STRUCTURE STRING | solubility (mole fraction)
CC(C)OC(=O)[C@H](C)N[P@](=O)(Oc1ccccc1)Oc1c(F)c(F)c(F)c(F)c1F | 0.0315

----------
Details: in isopropanol, 288.15 K

COMPOUND STRUCTURE STRING | solubility (mole fraction)
CC(C)OC(=O)[C@H](C)N[P@](=O)(Oc1ccccc1)Oc1c(F)c(F)c(F)c(F)c1F | 0.00204

----------
Conditions: in acetone, 278.15 K

COMPOUND STRUCTURE STRING | solubility (mole fraction)
CC(C)OC(=O)[C@H](C)N[P@](=O)(Oc1ccccc1)Oc1c(F)c(F)c(F)c(F)c1F | 0.00921

----------
Conditions: in acetone, 298.15 K
ATTRIBUTE MEASURED: solubility (mole fraction)

COMPOUND STRUCTURE STRING | REPORTED MEASUREMENT
CC(C)OC(=O)[C@H](C)N[P@](=O)(Oc1ccccc1)Oc1c(F)c(F)c(F)c(F)c1F | 0.019

----------
Conditions: in ethanol, 278.15 K

COMPOUND STRUCTURE STRING | solubility (mole fraction)
CC(C)OC(=O)[C@H](C)N[P@](=O)(Oc1ccccc1)Oc1c(F)c(F)c(F)c(F)c1F | 0.0019

----------
Details: in water, 308.15 K

COMPOUND STRUCTURE STRING | solubility (mole fraction)
CC(C)OC(=O)[C@H](C)N[P@](=O)(Oc1ccccc1)Oc1c(F)c(F)c(F)c(F)c1F | 0.000137

----------
Conditions: in toluene, 298.15 K
ATTRIBUTE MEASURED: solubility (mole fraction)

COMPOUND STRUCTURE STRING | REPORTED MEASUREMENT
CC(C)OC(=O)[C@H](C)N[P@](=O)(Oc1ccccc1)Oc1c(F)c(F)c(F)c(F)c1F | 0.00848

----------
Conditions: in ethyl acetate, 318.15 K

COMPOUND STRUCTURE STRING | solubility (mole fraction)
CC(C)OC(=O)[C@H](C)N[P@](=O)(Oc1ccccc1)Oc1c(F)c(F)c(F)c(F)c1F | 0.032

----------
Conditions: in methanol, 318.15 K

COMPOUND STRUCTURE STRING | solubility (mole fraction)
CC(C)OC(=O)[C@H](C)N[P@](=O)(Oc1ccccc1)Oc1c(F)c(F)c(F)c(F)c1F | 0.0111

----------
Conditions: in water, 313.15 K

COMPOUND STRUCTURE STRING | solubility (mole fraction)
CC(C)OC(=O)[C@H](C)N[P@](=O)(Oc1ccccc1)Oc1c(F)c(F)c(F)c(F)c1F | 0.000182

----------
Conditions: in ethanol, 318.15 K

COMPOUND STRUCTURE STRING | solubility (mole fraction)
CC(C)OC(=O)[C@H](C)N[P@](=O)(Oc1ccccc1)Oc1c(F)c(F)c(F)c(F)c1F | 0.0101

----------
Conditions: in acetonitrile, 318.15 K

COMPOUND STRUCTURE STRING | solubility (mole fraction)
CC(C)OC(=O)[C@H](C)N[P@](=O)(Oc1ccccc1)Oc1c(F)c(F)c(F)c(F)c1F | 0.0133

----------
Settings: in acetonitrile, 303.15 K
ATTRIBUTE MEASURED: solubility (mole fraction)

COMPOUND STRUCTURE STRING | ATTRIBUTE MEASURED | REPORTED MEASUREMENT
CC(C)OC(=O)[C@H](C)N[P@](=O)(Oc1ccccc1)Oc1c(F)c(F)c(F)c(F)c1F | solubility (mole fraction) | 0.00787

----------
Details: in n-propanol, 308.15 K
ATTRIBUTE MEASURED: solubility (mole fraction)

COMPOUND STRUCTURE STRING | REPORTED MEASUREMENT
CC(C)OC(=O)[C@H](C)N[P@](=O)(Oc1ccccc1)Oc1c(F)c(F)c(F)c(F)c1F | 0.00608

----------
Conditions: in water, 318.15 K

COMPOUND STRUCTURE STRING | solubility (mole fraction)
CC(C)OC(=O)[C@H](C)N[P@](=O)(Oc1ccccc1)Oc1c(F)c(F)c(F)c(F)c1F | 0.000235

----------
Details: in isopropanol, 308.15 K

COMPOUND STRUCTURE STRING | solubility (mole fraction)
CC(C)OC(=O)[C@H](C)N[P@](=O)(Oc1ccccc1)Oc1c(F)c(F)c(F)c(F)c1F | 0.00545

----------
Conditions: in ethanol, 298.15 K

COMPOUND STRUCTURE STRING | solubility (mole fraction)
CC(C)OC(=O)[C@H](C)N[P@](=O)(Oc1ccccc1)Oc1c(F)c(F)c(F)c(F)c1F | 0.00451

----------
Conditions: in methanol, 298.15 K
ATTRIBUTE MEASURED: solubility (mole fraction)

COMPOUND STRUCTURE STRING | ATTRIBUTE MEASURED | REPORTED MEASUREMENT
CC(C)OC(=O)[C@H](C)N[P@](=O)(Oc1ccccc1)Oc1c(F)c(F)c(F)c(F)c1F | solubility (mole fraction) | 0.00519

----------
Conditions: in water, 283.15 K

COMPOUND STRUCTURE STRING | solubility (mole fraction)
CC(C)OC(=O)[C@H](C)N[P@](=O)(Oc1ccccc1)Oc1c(F)c(F)c(F)c(F)c1F | 3.23e-05

----------
Conditions: in ethyl acetate, 298.15 K

COMPOUND STRUCTURE STRING | solubility (mole fraction)
CC(C)OC(=O)[C@H](C)N[P@](=O)(Oc1ccccc1)Oc1c(F)c(F)c(F)c(F)c1F | 0.0157

----------
Conditions: in acetone, 293.15 K
ATTRIBUTE MEASURED: solubility (mole fraction)

COMPOUND STRUCTURE STRING | REPORTED MEASUREMENT
CC(C)OC(=O)[C@H](C)N[P@](=O)(Oc1ccccc1)Oc1c(F)c(F)c(F)c(F)c1F | 0.0159

----------
Details: in toluene, 313.15 K

COMPOUND STRUCTURE STRING | solubility (mole fraction)
CC(C)OC(=O)[C@H](C)N[P@](=O)(Oc1ccccc1)Oc1c(F)c(F)c(F)c(F)c1F | 0.0151

----------
Conditions: in methanol, 313.15 K

COMPOUND STRUCTURE STRING | solubility (mole fraction)
CC(C)OC(=O)[C@H](C)N[P@](=O)(Oc1ccccc1)Oc1c(F)c(F)c(F)c(F)c1F | 0.00927

----------
Details: in acetonitrile, 288.15 K
ATTRIBUTE MEASURED: solubility (mole fraction)

COMPOUND STRUCTURE STRING | ATTRIBUTE MEASURED | REPORTED MEASUREMENT
CC(C)OC(=O)[C@H](C)N[P@](=O)(Oc1ccccc1)Oc1c(F)c(F)c(F)c(F)c1F | solubility (mole fraction) | 0.00439

----------
Conditions: in toluene, 293.15 K
ATTRIBUTE MEASURED: solubility (mole fraction)

COMPOUND STRUCTURE STRING | REPORTED MEASUREMENT
CC(C)OC(=O)[C@H](C)N[P@](=O)(Oc1ccccc1)Oc1c(F)c(F)c(F)c(F)c1F | 0.00696

----------
Conditions: in acetonitrile, 278.15 K

COMPOUND STRUCTURE STRING | solubility (mole fraction)
CC(C)OC(=O)[C@H](C)N[P@](=O)(Oc1ccccc1)Oc1c(F)c(F)c(F)c(F)c1F | 0.00297

----------
Settings: in water, 293.15 K
ATTRIBUTE MEASURED: solubility (mole fraction)

COMPOUND STRUCTURE STRING | ATTRIBUTE MEASURED | REPORTED MEASUREMENT
CC(C)OC(=O)[C@H](C)N[P@](=O)(Oc1ccccc1)Oc1c(F)c(F)c(F)c(F)c1F | solubility (mole fraction) | 6.06e-05

----------
Conditions: in ethyl acetate, 313.15 K

COMPOUND STRUCTURE STRING | solubility (mole fraction)
CC(C)OC(=O)[C@H](C)N[P@](=O)(Oc1ccccc1)Oc1c(F)c(F)c(F)c(F)c1F | 0.0269

----------
Conditions: in toluene, 288.15 K

COMPOUND STRUCTURE STRING | solubility (mole fraction)
CC(C)OC(=O)[C@H](C)N[P@](=O)(Oc1ccccc1)Oc1c(F)c(F)c(F)c(F)c1F | 0.00572
